src = patent US9790169B2

Molecular target: human IDO1 (Homo sapiens, UniProt P14902)
Sequence (P14902 whole entry): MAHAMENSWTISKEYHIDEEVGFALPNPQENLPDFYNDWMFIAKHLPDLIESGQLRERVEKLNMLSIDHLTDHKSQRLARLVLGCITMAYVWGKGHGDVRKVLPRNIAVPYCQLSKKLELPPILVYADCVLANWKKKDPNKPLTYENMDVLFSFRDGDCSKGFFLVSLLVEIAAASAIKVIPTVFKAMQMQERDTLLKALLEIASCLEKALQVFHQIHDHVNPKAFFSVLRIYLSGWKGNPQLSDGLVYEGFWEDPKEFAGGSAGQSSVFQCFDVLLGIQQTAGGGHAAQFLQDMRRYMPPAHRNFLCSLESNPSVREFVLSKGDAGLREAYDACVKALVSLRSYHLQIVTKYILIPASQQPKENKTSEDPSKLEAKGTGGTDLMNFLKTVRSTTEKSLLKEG
Assay: Assessment of human IDO-1 inhibitory activity in HEK cells (human IDO1/HEK293 cells, kynurenine read-out with Ehrlich reagent, absorbance 490 nm)
Format: cell-based
Set-up: expressed in transfected cells
Conditions: HEK Human IDO-1 cellular assay
pIC50: −log10 of the molar value.
READOUT: pIC50

>  <COMPOUND>
COCC(CC(=O)O)c1cc(F)c(N(CC(C)C)CC(C)C)c(NC(=O)Nc2ccc(Cl)cc2F)c1 (single isomer, unassigned)

>  <TGT>
human IDO1 (Homo sapiens, UniProt P14902)

>  <pIC50>
> 8.30

$$$$

Returns the measured pIC50 for the input compound. Input: CCC(CC(=O)O)c1ccc(N2CCOC[C@H]2C(C)C)c(Nc2cnc(OC)nc2)c1 (single isomer, unassigned) > 7.30

Bench note: what pIC50 did CCOc1ccc(NC(=O)Nc2cc(C(CC(=O)O)C3CC3)ccc2N(CC(C)C)C2CCOCC2)cc1 (racemic) [Example 1204] show? > 7.30

What does the data say about its pIC50? Entry: COCC(CC(=O)O)c1ccc(N(CC(C)C)C2CCCCC2)c(NC(=O)Nc2ccc(Cl)cc2F)c1 (single isomer, unassigned) [985-1] > 8.30

Can you look up the measured pIC50 of CC[C@@H](CC(=O)O)c1ccc(N(CC)C2CCOCC2)c(Nc2cnc(OC)nc2)c1 (single isomer, unassigned) for me? > 8.30

Any idea what its pIC50 is? The compound is CC[C@@H](CC(=O)O)c1ccc(N(CC(C)C)C2CCS(=O)(=O)CC2)c(NC(=O)Nc2ccc(C)cc2)c1 (single isomer, unassigned) < 7.30

Need pIC50, item CCCN(c1ccc([C@@H](CC)CC(=O)O)cc1Nc1cnc(OC)nc1)C1CCOCC1 (single isomer, unassigned) > 8.30

Fill in: pIC50 of COCC(CC(=O)O)c1cc(F)c(N(CC(C)C)C2CCCCC2)c(NC(=O)Nc2cc(C)on2)c1 (single isomer, unassigned) [Example 1158] is ___ > 7.30

Quick one: pIC50 for CC[C@H](CC(=O)O)c1ccc(N(CC(C)(C)O)C2CCCCC2)c(Nc2ccc(C#N)cc2)c1 (single isomer, unassigned) ? > 8.30

----------
Target: human IDO1 (Homo sapiens, UniProt P14902)
Assay: Assessment of human IDO-1 inhibitory activity in Hela cells (Interferon-gamma stimulated HeLa cells, Ehrlich reagent, absorbance 490 nm)
Assay type: cell-based
Set-up: endogenous in cells; host or cells: HeLa cells stimulated with interferon-gamma
Settings: Hela Human IDO-1 cellular assay
Listed here: items and their measured IC50.

I have this compound here, CCCN(c1ccc(C(C)(C)CC(=O)O)cc1NC(=O)Nc1ccc(C#N)cc1)C1CCS(=O)(=O)CC1 [Example 190] , and I need its recorded IC50. > 50 nM

What value of IC50 has been reported for the following compound? CCN(c1ccc(C2(CC(=O)O)CCOCC2)cc1Nc1ccc(OC)nc1)C1CCOCC1 [Example 156] > 50 nM

Reported IC50, compound COCC(CC(=O)O)c1cc(F)c(N(CC(C)C)CC(C)C)c(Nc2ccc3nc(C)sc3c2)c1 (single isomer, unassigned) [Example 925] : ____ < 50 nM

----------
Listed here: items and their measured pIC50.
Molecular target: human IDO1 (Homo sapiens, UniProt P14902)
Assay: Assessment of human IDO-1 inhibitory activity in Hela cells (Interferon-gamma stimulated HeLa cells, Ehrlich reagent, absorbance 490 nm)
Type: cell-based
Design: endogenous in cells; host or cells: HeLa cells stimulated with interferon-gamma
Details: Hela Human IDO-1 cellular assay
pIC50: −log10 of the molar value.

Solved entries:
>  <COMPOUND>
COCC(CC(=O)O)c1ccc(N2CCOC[C@H]2C(C)C)c(NC(=O)Nc2ccc(C#N)cc2)c1 (single isomer, unassigned) [Example 911]

>  <pIC50>
< 7.30

$$$$
>  <COMPOUND>
CC[C@@H](CC(=O)O)c1ccc(N(CC)C2CCOCC2)c(Nc2ccc(OC)cn2)c1 (single isomer, unassigned) [Example 462]

>  <pIC50>
> 8.30

$$$$

For the next question, use this compound.
Please report the recorded pIC50 for CCN(c1ccc([C@H](CNS(=O)(=O)C(F)(F)F)COC)cc1Nc1ccc(C#N)cc1)C1CCOCC1 [Example 1342] . > 7.30

----------
Biological target: human IDO1 (Homo sapiens)
Assay: Assessment of human IDO-1 inhibitory activity in HEK cells (human IDO1/HEK293 cells, kynurenine read-out with Ehrlich reagent, absorbance 490 nm)
Format: cell-based
Design: expressed in transfected cells
Conditions: HEK Human IDO-1 cellular assay
pIC50: −log10 of the molar value.
Parameter pIC50: see the listing below.

Past entries and their recorded results:
>  <COMPOUND>
CCC(CC(=O)O)c1cc(F)c(N(CC(C)C)CC(C)C)c(NC(=O)Nc2ccccc2Cl)c1 (racemic) [Example 975]

>  <pIC50>
> 7.30

$$$$
>  <COMPOUND>
CCOc1ccc(NC(=O)Nc2cc(C(CC)CC(=O)O)c(F)cc2N(CC(C)C)CC(C)C)cc1 (racemic) [Example 1131]

>  <pIC50>
> 8.30

$$$$
>  <COMPOUND>
CCC(CC(=O)O)c1ccc(N2CCOC[C@H]2C(C)C)c(NC(=O)Nc2ccc(Cl)cc2F)c1 (single isomer, unassigned) [Example 896]

>  <pIC50>
> 7.30

$$$$
>  <COMPOUND>
CCC(CC(=O)O)c1cc(NC(=O)Nc2cc(C)no2)c(N(CC(C)C)C2CCCCC2)cc1F (single isomer, unassigned) [Example 1114]

>  <pIC50>
> 8.30

$$$$
>  <COMPOUND>
CCCN(c1ccc([C@@H](CC)CC(=O)O)cc1Nc1ccc(C#N)cc1)C1CCOCC1 (single isomer, unassigned) [Example 536]

>  <pIC50>
> 8.30

$$$$

Switching to the query record.
For the compound shown here, CC[C@@H](CC(=O)O)c1ccc(N2CCC[C@H]2C(C)(C)F)c(NC(=O)Nc2ccc(C)cc2)c1 (single isomer, unassigned) [Example 785] , give the reported pIC50. < 7.30

----------
Biological target: human IDO1 (Homo sapiens, UniProt P14902)
Assay: Assessment of human IDO-1 inhibitory activity in Hela cells (Interferon-gamma stimulated HeLa cells, Ehrlich reagent, absorbance 490 nm)
Assay type: cell-based
Parameters: endogenous in cells; host or cells: HeLa cells stimulated with interferon-gamma
Details: Hela Human IDO-1 cellular assay
pIC50: −log10 of the molar value.
In this section we review reported pIC50 values for a set of molecules.

Recorded pIC50 for CCOc1ncc(Nc2cc(C(CC)(CC)CC(=O)O)ccc2N(CC)C2CCOCC2)cn1 [Example 29] , please? > 8.30

// returns reported pIC50 for input CCC1COCCN1c1ccc([C@H](COC)CC(=O)O)cc1Nc1ccc(C#N)c(F)c1 (single isomer, unassigned) [Example 1304] > 7.30

----------
Molecular target: human IDO1 (Homo sapiens)
Test: Assessment of human IDO-1 inhibitory activity in HEK cells (human IDO1/HEK293 cells, kynurenine read-out with Ehrlich reagent, absorbance 490 nm)
Type: cell-based
Design: expressed in transfected cells
Conditions: HEK Human IDO-1 cellular assay
Description: Exemplary compounds were tested for inhibition of IDO activity. Assessment of Human IDO-1 Inhibitory Activity in HEK Cells HEK293 cells were transfected with a pCDNA-based mammalian expression vector harboring human IDO1 cDNA (NM 002164.2) by electroporation. […] The compound treatments were stopped by adding trichloroacetic acid (Sigma-Aldrich) to a final concentration at 0.2%. […] The absorbance at 490 nm was measured on Envision plate reader. […]
READOUT: IC50

Guide cases for IC50, answers given:
>  <MOLECULE>
CCOc1ccc(Nc2cc([C@H](CC)CC(=O)O)ccc2N(CC)C2CCOCC2)nc1 (single isomer, unassigned) [Example 522]

>  <TGT>
human IDO1 (Homo sapiens)

>  <RECORDED_VALUE>
< 5 nM

$$$$
>  <MOLECULE>
CCN(c1ccc(C(C)CC(=O)O)cc1NC(=O)Nc1ccccc1F)C1CCOCC1 (single isomer, unassigned) [Example 638]

>  <TGT>
human IDO1 (Homo sapiens)

>  <RECORDED_VALUE>
< 50 nM

$$$$
>  <MOLECULE>
CCc1ccc(Nc2cc([C@@H](CC)CC(=O)O)ccc2N(CC)C2CCCCC2)cc1 (single isomer, unassigned) [Example 282]

>  <TGT>
human IDO1 (Homo sapiens)

>  <RECORDED_VALUE>
< 5 nM

$$$$
>  <MOLECULE>
CCN(c1ccc(C(C)CC(=O)O)cc1NC(=O)Nc1ccccc1F)C1CCOCC1 (single isomer, unassigned) [Example 640]

>  <TGT>
human IDO1 (Homo sapiens)

>  <RECORDED_VALUE>
> 50 nM

$$$$
>  <MOLECULE>
CCN(c1ccc([C@@H](COC)CC(=O)O)cc1Nc1ccc(Cl)cc1)C1CCOCC1 (single isomer, unassigned) [Example 376]

>  <TGT>
human IDO1 (Homo sapiens)

>  <RECORDED_VALUE>
< 5 nM

$$$$

API: the following record is the query input.
Please report the recorded IC50 for Cc1cc(CC(=O)Nc2cc(C(CC(=O)O)C3CC3)ccc2N(CC(C)C)C2CCCCC2)no1 (single isomer, unassigned) [Example 1251] . < 50 nM
